The values you see were collected from PubChem BioAssay (NCATS).

assay: Quantitative High-Throughput drug screen in 47 multiple myeloma cell lines against the NCATS MIPE library collection: Delta47_JCRB cell viability assay (AID 1918925; note: nearly all actives have a fitted effect of over 45% in size); details: Delta47 myeloma viability, CellTiter-Glo ATP, 48 h; series mostly up to 45.8 µM
Results filed as inconclusive are left out. Calls of active or inactive are those of the source. Calls come from the whole dose curve; as a rule, active = well fitted cell-killing curve with a large enough effect; inconclusive = small, poorly fitted or top-dose-only effect, or effect the other way; inactive = no such curve, though single readings can be large or run the other way.
Your answer must be one of the following: active, inactive

>>> label_value("CN1[C@H]2CC(O)C[C@H]1[C@H]1O[C@H]12 (some centres undefined)")
"active"
>>> label_value("c1ccc2c(CN3CCNCC3)cccc2c1")
"inactive"
>>> label_value("CC(C)N[C@@H]1CCn2c(=O)[nH]c3cccc(c32)[C@@H]1O")
"active"
>>> label_value("CSCC[C@@H](NC(=O)[C@@H](Cc1ccccc1)NC(=O)CNC(=O)CNC(=O)[C@@H](N)Cc1ccc(O)cc1)C(=O)O")
"inactive"

Consider now this further compound.
[ask] Assay result, entry `C[C@@H]1CC[C@@]2(OC1)O[C@H]1C[C@H]3[C@@H]4CC=C5C[C@@H](O[C@@H]6O[C@H](CO)[C@@H](O[C@@H]7O[C@@H](C)[C@H](O)[C@@H](O)[C@@H]7O)[C@H](O)[C@@H]6O[C@@H]6O[C@@H](C)[C@H](O)[C@@H](O)[C@@H]6O)CC[C@]5(C)[C@@H]4CC[C@]3(C)[C@@H]1[C@H]2C` — outcome?
[reply] active

----------
assay: High-throughput drug toxicity screening in the BPDCN cell line Cal-1 (AID 1224825); conditions: Cal-1 BPDCN cell viability, qHTS; at 45.8 µM (top of the series);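 note: cells exposed to compounds for 48 h; 100% = DMSO and 0% = bortezomib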
property measured: viability (% of control)
The number alone won't do; follow it with the unit.

Before answering, review these 5 worked examples.
>>> data_value("CC[C@@H]1[C@@H](C)O[C@@](O)([C@@H](C)[C@H](O)[C@H](C)[C@H]2OC(=O)C=CC=C[C@@H](C)[C@@H]([C@@H](C)[C@@H](O)[C@H](C)[C@@]3(O)C[C@H](O[C@H]4C[C@H](O)[C@H](O)[C@H](C)O4)[C@H](CC)[C@@H](C)O3)OC(=O)C=CC=C[C@@H]2C)C[C@H]1O[C@H]1C[C@H](O)[C@H](O)[C@H](C)O1")
"3.46%"
>>> data_value("CC=C(C)C(=O)N[C@@H](c1ccccc1)[C@@H](O)C(=O)O[C@H]1C[C@@]2(O)[C@@H](OC(=O)c3ccccc3)[C@@H]3[C@]4(OC(C)=O)CO[C@@H]4C[C@H](O)[C@@]3(C)C(=O)[C@H](OC(C)=O)C(=C1C)C2(C)C")
"19.1%"
>>> data_value("O=c1[nH]c2ccccc2n1C1CCN(Cc2ccc(-c3[nH]c4cc5ncnc5cc4nc3-c3ccccc3)cc2)CC1")
"3.61%"
>>> data_value("COc1ccc(C(=O)c2c(C)n(CCN3CCOCC3)c3cc(I)ccc23)cc1")
"5.23%"
>>> data_value("Cc1ccccc1-n1c(Cn2ncc3c(N)ncnc32)nc2cccc(C)c2c1=O")
"17.1%"

Record `C[C@@]12OC(=O)[C@]1([C@@H](O)[C@@H]1C=CCCC1)NC(=O)[C@H]2CCCl` , field viability (% of control): 3.86%

Record `CC(=Cc1csc(C)n1)[C@@H]1C[C@H]2O[C@]2(C)CCC[C@H](C)[C@@H](O)[C@@H](C)C(=O)C(C)(C)[C@@H](O)CC(=O)O1` , field viability (% of control): 17%

Record `CC(C)(O)C=CC(=O)[C@](C)(O)[C@H]1[C@H](O)C[C@]2(C)[C@@H]3CC=C4[C@@H](C=C(O)C(=O)C4(C)C)[C@]3(C)C(=O)C[C@@]12C` , field viability (% of control): 2.59%

----------
test: NS1 protein of Zika virus - qHTS assay to identify small molecule inhibitors in human HEK 293 cells (AID 1347053); conditions: HEK293 ZIKV MR766 infection, NS1 TR-FRET, 24 h; series mostly up to 46.1 µM;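 note: plate controls were infected untreated cells for no effect and uninfected cells for full effect; nearly all actives have a fitted effect of over 55% in size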
Records with an inconclusive call do not appear. Activity calls are given as the source filed them. The call rests on the fitted dose curve; in most records, active means well fitted inhibition curve with a large enough effect; inconclusive means small, poorly fitted or top-dose-only effect; inactive means no such curve, though single readings can be large or run the other way.
Your answer must be one of the following: active, inactive

Example cases with answers are listed next.
>>> label_value("NC1=NC(=O)N2CC12 (stereo unspecified)")
"inactive"
>>> label_value("O=c1cccc2n1CC1CNC[C@H]2C1")
"inactive"
>>> label_value("CN(C)[C@@H]1C(=O)C(C(N)=O)=C(O)[C@@]2(O)C(=O)C3=C(O)c4c(O)cccc4[C@@](C)(O)[C@H]3[C@H](O)[C@@H]12")
"inactive"

[ask] Assay result, entry `NCc1cc(=O)[nH]o1` — outcome?
[reply] inactive

[ask] Assay result, entry `Nc1ccc([N+](=O)[O-])cc1` — outcome?
[reply] inactive

[ask] Assay result, entry `C[C@]12CC[C@H]3[C@@H](CCC4=CC(=O)CC[C@@]43C)[C@H]1CC[C@H]2O` — outcome?
[reply] inactive

----------
assay: Cell Viability - LYMP2-004 (AID 966); settings: LYMP2-004 lymphoblastoid cell viability, qHTS; series mostly up to 92.2 µM;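 note: cells exposed to compound for 24 h; plate controls were DMSO only for no effect and tetraoctylammonium bromide control for full effect; nearly all actives have a fitted effect of over 65% in size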
Results filed as inconclusive are left out. Activity calls are given as the source filed them. The call rests on the fitted dose curve; in most records, active means well fitted cell-killing curve with a large enough effect; inconclusive means small, poorly fitted or top-dose-only effect, or effect the other way; inactive means no such curve, though single readings can be large or run the other way.
property measured: outcome

>>> data_value("Nc1ccc(Cl)cc1")
"inactive"
>>> data_value("CCOP(=O)(NC(C)C)Oc1ccc(SC)c(C)c1 (stereo not drawn)")
"inactive"
>>> data_value("COC(C)(C)CCCC(C)C/C=C/C(C)=C/C(=O)OC(C)C (stereo not drawn)")
"inactive"
>>> data_value("CCOCCOC(C)=O")
"inactive"
>>> data_value("C=CC(=O)NCNC(=O)C=C")
"inactive"

Record `O=[N+]([O-])c1c(Cl)c(Cl)cc(Cl)c1Cl` , field outcome: inactive

Record `c1cc2ccc3cccc4ccc(c1)c2c34` , field outcome: inactive

Record `O=[N+]([O-])c1cc([N+](=O)[O-])c2ccccc2c1` , field outcome: inactive

----------
target: Nucleoprotein (Lymphocytic choriomeningitis virus (strain Armstrong)) (UniProt P09992); experiment: qHTS for Inhibitors of the Functional Ribonucleoprotein Complex (vRNP) of Lymphocytic Choriomeningitis Arenaviruses (LCMV): LCMV Primary Screen - GLuc reporter signal (AID 1347086); conditions: LCMV minigenome vRNP cell assay, Gaussia luciferase reporter; series mostly up to 57.5 µM; note: nearly all actives have a fitted effect of over 70% in size
Sequence (P09992 whole entry, looked up): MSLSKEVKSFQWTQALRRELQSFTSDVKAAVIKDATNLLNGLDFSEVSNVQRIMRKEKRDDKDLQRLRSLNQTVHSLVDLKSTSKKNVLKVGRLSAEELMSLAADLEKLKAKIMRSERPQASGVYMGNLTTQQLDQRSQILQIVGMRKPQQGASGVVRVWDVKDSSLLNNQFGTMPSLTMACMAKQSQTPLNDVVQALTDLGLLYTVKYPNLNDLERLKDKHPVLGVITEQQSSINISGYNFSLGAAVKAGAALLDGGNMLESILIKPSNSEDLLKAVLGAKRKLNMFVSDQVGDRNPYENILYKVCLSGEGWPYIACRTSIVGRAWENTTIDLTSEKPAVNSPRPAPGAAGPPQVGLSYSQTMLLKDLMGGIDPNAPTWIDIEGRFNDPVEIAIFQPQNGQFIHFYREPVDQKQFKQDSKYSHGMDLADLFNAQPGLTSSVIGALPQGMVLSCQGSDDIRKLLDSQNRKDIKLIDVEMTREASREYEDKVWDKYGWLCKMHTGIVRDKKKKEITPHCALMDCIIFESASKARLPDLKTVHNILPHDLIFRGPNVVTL
Records with an inconclusive call do not appear. The source made the active and inactive calls. Calls come from the whole dose curve.
Your answer must be one of the following: 1 (active), -1 (inactive)

>>> label_value("CCCOC(=O)c1ccc(O)cc1")
-1

[ask] Assay result, entry `C[C@]12CC[C@@H]3[C@@H](CCC4=CC(=O)CC[C@@H]43)[C@@H]1CC[C@@H]2OC(=O)CCc1ccccc1` — outcome?
[reply] -1

[ask] Assay result, entry `C[C@]12CC[C@H](O)CC1=CC[C@@H]1[C@H]2CC[C@]2(C)C(c3cccnc3)=CC[C@H]12` — outcome?
[reply] -1

[ask] Assay result, entry `CC1(C)Cc2c(-c3ccccc3)c(-c3ccc(Cl)cc3)c(CC(=O)O)n2C1` — outcome?
[reply] -1

[ask] Assay result, entry `COc1cc2nc(N3CCCN(C)CC3)nc(NC3CCN(Cc4ccccc4)CC3)c2cc1OC` — outcome?
[reply] 1

----------
assay: qHTS for Inhibitors of the Functional Ribonucleoprotein Complex (vRNP) of Lassa (LASV) Arenavirus: LASV Primary Screen - GLuc reporter signal (AID 1347082); settings: LASV minigenome vRNP, Gaussia luciferase reporter; series mostly up to 57.5 µM; note: % is set by controls: 0 for no effect and ±100 for the full control effect; nearly all actives have a fitted effect of over 60% in size
Inconclusive results are not listed. Active and inactive are the calls of the source. Calls follow the shape of the full dose curve; tested in HEK293 reporter line.
Your answer must be one of the following: class 1 (active), class 0 (inactive)

>>> label_value("CCOP(=O)(NC(C)C)Oc1ccc(SC)c(C)c1 (stereo not given)")
"class 0"
>>> label_value("C=C1C(=CC=C2CCC[C@]3(C)[C@@H]([C@H](C)C=C[C@H](C)C(C)C)CC[C@@H]23)C[C@@H](O)C[C@@H]1O")
"class 0"

[ask] Assay result, entry `O=c1cccc2n1CC1CNC[C@H]2C1` — outcome?
[reply] class 0

[ask] Assay result, entry `CCN1CCN(c2cc3c(cc2F)c(=O)c(C(=O)O)cn3C2CC2)CC1` — outcome?
[reply] class 0

[ask] Assay result, entry C=C[C@@H]1CN2CCC1C[C@H]2[C@H](O)c1ccnc2ccccc12 (stereo not given in full) — outcome?
[reply] class 0

----------
test: Quantitative High-Throughput drug screen in 47 multiple myeloma cell lines against the NCATS MIPE library collection: XG1_PLB cell viability assay (AID 1919866); conditions: CellTiter-Glo ATP, 48 h; series mostly up to 45.8 µM; note: nearly all actives have a fitted effect of over 35% in size
Inconclusive results are not listed. Activity calls are given as the source filed them. The call rests on the fitted dose curve; in most records, active means well fitted cell-killing curve with a large enough effect; inconclusive means small, poorly fitted or top-dose-only effect, or effect the other way; inactive means no such curve, though single readings can be large or run the other way.
Your answer must be one of the following: 1 (active), -1 (inactive)

Example cases with answers are listed next.
>>> label_value("O=C1C=CC[C@@H]2[C@H]3CCCN4CCC[C@@H](CN12)[C@@H]34")
-1
>>> label_value("CC(=O)O[C@@]12CO[C@H]1C[C@H](O)[C@@]1(C)C(=O)[C@H](O)C3=C(C)[C@@H](O)C[C@@](O)([C@@H](OC(=O)c4ccccc4)[C@@H]21)C3(C)C")
1
>>> label_value("CC(C)N[C@@H]1CCn2c(=O)[nH]c3cccc(c32)[C@@H]1O")
1
>>> label_value("c1ccc(CCCN2CCN(CCOC(c3ccccc3)c3ccccc3)CC2)cc1")
1
>>> label_value("CCOC(=O)Nc1ccc(NCc2ccc(F)cc2)cc1N")
1
>>> label_value("C1=C2CCCN[C@H]2[C@@H]2C[C@H]1[C@@H]1CCCCN1C2")
-1

[ask] Assay result, entry `CCNC(=O)C[C@@H]1N=C(c2ccc(Cl)cc2)c2cc(OC)ccc2-n2c(C)nnc21` — outcome?
[reply] 1

[ask] Assay result, entry `C[C@]12COC(=O)C[C@@H]1CC[C@@H]1[C@H]2CC[C@@]2(C)[C@H]1CC[C@]2(C)O` — outcome?
[reply] -1

[ask] Assay result, entry `CCCCCC[C@H]1C(=O)O[C@H](C)[C@H](NC(=O)c2cccc(NC=O)c2O)C(=O)O[C@@H](C)[C@@H]1OC(=O)CC(C)C` — outcome?
[reply] 1
